molecular target: T1, Anti-CD28 Fab (SEQ ID NOs: 696, 697); assay: phage binding ELISA; biotinylated anti-CD28 Fab on neutravidin plate, clonal phage supernatant, anti-M13 HRP detection
T1 construct: In the phage ELISA the Fab was biotinylated and captured on neutravidin coated plates
T1 sequence (VH, as listed by the source, chain 1 of 2): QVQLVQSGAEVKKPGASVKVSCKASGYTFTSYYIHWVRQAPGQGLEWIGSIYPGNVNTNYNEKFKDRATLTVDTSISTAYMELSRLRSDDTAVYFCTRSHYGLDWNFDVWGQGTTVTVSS
T1 sequence (VL, as listed by the source, chain 2 of 2): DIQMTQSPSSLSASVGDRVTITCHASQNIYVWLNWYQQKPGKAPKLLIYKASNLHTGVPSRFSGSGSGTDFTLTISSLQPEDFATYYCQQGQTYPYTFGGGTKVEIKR
Parameter: Anti-CD28 Fab signal (phage binding ELISA). Scope: all listed entries.
PARAMETER MEASURED: Anti-CD28 Fab signal (phage binding ELISA)

INSERT INTO results (binder, experimental_value) VALUES
  ('YCEGHRAEYMSKCL [Phage-1165]', 1.16),
  ('YCDGHLPDYMAKCL [Phage-1161]', 1.17),
  ('YCEGHLKEYMQKCL [Phage-1163]', 1.17),
  ('YCEGHLPQYMSKCL [Phage-1168]', 1.15),
  ('YCEGHSQQYMWKCL [Phage-1160]', 1.17),
  ('YCEGHMPEYLAKCL [Phage-1156]', 1.18),
  ('YCEGHAGVYMAKCL [Phage-1157]', 1.17),
  ('YCEGHAEQYMEKCL [Phage-1162]', 1.17),
  ('YCDGHLSVYMSKCL [Phage-1167]', 1.15),
  ('YCEGHSYQYMQKCL [Phage-1164]', 1.16),
  ('YCEGHSQTYMWKCL [Phage-1158]', 1.17),
  ('YCAGHSSEYIGKCL [Phage-1159]', 1.17),
  ('YCDGHSWIYMVKCL [Phage-1166]', 1.16);
